Reference for the values: patent US11608335B2

- target or system: human somatostatin receptor subtype 5 (Homo sapiens, UniProt P35346)
- Sequence (P35346 whole entry): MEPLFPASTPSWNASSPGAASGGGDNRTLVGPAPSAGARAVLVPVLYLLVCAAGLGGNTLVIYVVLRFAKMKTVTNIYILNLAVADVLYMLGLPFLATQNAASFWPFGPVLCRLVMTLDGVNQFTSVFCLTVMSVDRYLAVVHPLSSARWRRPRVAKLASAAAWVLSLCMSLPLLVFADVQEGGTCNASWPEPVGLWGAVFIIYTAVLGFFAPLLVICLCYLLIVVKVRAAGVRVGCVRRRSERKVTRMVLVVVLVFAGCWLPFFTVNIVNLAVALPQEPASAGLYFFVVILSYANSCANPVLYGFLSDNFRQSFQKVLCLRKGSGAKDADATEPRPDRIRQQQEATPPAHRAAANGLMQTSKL
- assay procedure: cAMP assay for SST5R (inhibition of cAMP via human SST5 receptor)
pEC50: −log10 of the molar value.
endpoint name: pEC50

Bench note: what pEC50 did Cc1cc(Cl)cc(-c2cncc(-c3nc4cc(F)cc(F)c4[nH]3)c2N2CC(CN)C2)c1 show?
> 8.00

Bench note: what pEC50 did Cc1cccc2nc(-c3cncc(-c4ccc(F)c(C#N)c4)c3N3CC[C@H](N)C3)[nH]c12 show?
> 8.00

Bench note: what pEC50 did C[C@]1(N)CCN(c2c(-c3ccc(F)c(C#N)c3)cncc2-c2nc3ncccc3[nH]2)C1 show?
> 8.00

Bench note: what pEC50 did CC1(N)CCN(c2c(-c3cccc(C#N)c3)cncc2-c2nc3cccc(F)c3[nH]2)C1 (stereo not shown) show?
> 8.00

Bench note: what pEC50 did NC(=O)c1cccc(-c2cncc(-c3nc4cccc(F)c4[nH]3)c2N2CC[C@H](N)C2)c1 show?
> 8.00

Bench note: what pEC50 did CC1(N)CCN(c2c(-c3cccc(N4CCOC4=O)c3)cncc2-c2nc3cccc(F)c3[nH]2)C1 (stereo not shown) show?
7.00 to 8.00

Bench note: what pEC50 did N#Cc1cccc(-c2cncc(-c3nc4cccc(F)c4[nH]3)c2N2C[C@H](CO)[C@@H](N)C2)c1 (racemic) show?
7.00 to 8.00
